experiment: Solubility analysis of allulose dimer crystals in water; assay type: physicochemical; details: water as solvent, solvent temperature 25°C
Assay Readout: solubility
Note: a bare number is incomplete; add the unit.

solubility for `O=C(CO)[C@H](O)[C@H](O)[C@H](O)CO` ?
340 mg/mL

Recorded values, source patent EP4644401A1.
